biological target: TYK2 (Homo sapiens, UniProt P29597); assay: TYK2 kinase inhibition (Table A1); type: biochemical
Sequence (P29597 whole entry): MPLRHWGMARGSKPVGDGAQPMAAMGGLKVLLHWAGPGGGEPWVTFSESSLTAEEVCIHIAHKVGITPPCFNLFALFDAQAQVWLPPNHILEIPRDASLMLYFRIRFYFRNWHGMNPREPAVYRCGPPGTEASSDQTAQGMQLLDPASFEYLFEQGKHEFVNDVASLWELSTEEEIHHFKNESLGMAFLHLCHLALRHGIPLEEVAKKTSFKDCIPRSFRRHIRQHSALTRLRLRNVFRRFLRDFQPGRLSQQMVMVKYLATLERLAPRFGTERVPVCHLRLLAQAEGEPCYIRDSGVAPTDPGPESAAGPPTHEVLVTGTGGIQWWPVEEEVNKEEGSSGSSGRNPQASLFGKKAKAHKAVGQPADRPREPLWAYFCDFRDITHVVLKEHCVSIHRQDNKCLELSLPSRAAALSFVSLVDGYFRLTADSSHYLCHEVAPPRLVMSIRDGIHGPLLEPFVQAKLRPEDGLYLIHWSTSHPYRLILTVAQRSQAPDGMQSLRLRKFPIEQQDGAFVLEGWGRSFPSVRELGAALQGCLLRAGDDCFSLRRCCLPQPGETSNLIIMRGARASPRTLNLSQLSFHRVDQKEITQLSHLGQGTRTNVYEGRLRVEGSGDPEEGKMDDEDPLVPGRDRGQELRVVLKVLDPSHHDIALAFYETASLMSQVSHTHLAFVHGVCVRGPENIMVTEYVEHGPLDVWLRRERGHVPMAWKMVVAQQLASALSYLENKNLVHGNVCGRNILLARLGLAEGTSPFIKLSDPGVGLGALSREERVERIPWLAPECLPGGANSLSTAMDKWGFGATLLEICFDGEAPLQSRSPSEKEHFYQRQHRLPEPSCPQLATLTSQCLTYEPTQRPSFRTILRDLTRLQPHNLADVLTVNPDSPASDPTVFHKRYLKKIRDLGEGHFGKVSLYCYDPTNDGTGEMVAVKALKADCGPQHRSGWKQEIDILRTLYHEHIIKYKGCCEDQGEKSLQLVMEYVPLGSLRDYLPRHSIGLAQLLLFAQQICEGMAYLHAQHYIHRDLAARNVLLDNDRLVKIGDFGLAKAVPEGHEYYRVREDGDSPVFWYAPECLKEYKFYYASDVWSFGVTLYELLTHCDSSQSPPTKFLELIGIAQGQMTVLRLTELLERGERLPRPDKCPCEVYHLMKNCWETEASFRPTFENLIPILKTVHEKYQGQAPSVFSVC
Counter-ions that a name gives are not always drawn.

{"columns": ["COMPOUND", "IC50, nM"],
 "data": [
  ["COc1cc(C(=O)N2CCC(CC(=O)Nc3ccc4cc3CCc3cncc(c3)Nc3ncc(Cl)c(n3)N4)CC2)on1 [Example A215, bis(trifluoroacetate)]", 160],
  ["Cc1ccc2cc1Nc1ncc(Cl)c(n1)Nc1cccc(c1)CC2 [Example A7, trifluoroacetate]", 150],
  ["O=C(COc1cc2cc(c1)Nc1nc(ncc1Cl)Nc1cccc(c1)CC2)Nc1ccccc1 [Example A24, trifluoroacetate]", 139]
]}

###

Catalogue of IC50 readings, one per entry.
molecular target: human JAK3 (a.a. 781-1124) (Homo sapiens); construct: JAK3 (a.a. 781-1124); His tag (N); made in house; host or cells: insect cells (baculovirus); assay: In vitro JAK kinase assay (HTRF, phosphorylation of a biotinylated peptide), JAK3; format: biochemical
Sequence (P52333 781-1124): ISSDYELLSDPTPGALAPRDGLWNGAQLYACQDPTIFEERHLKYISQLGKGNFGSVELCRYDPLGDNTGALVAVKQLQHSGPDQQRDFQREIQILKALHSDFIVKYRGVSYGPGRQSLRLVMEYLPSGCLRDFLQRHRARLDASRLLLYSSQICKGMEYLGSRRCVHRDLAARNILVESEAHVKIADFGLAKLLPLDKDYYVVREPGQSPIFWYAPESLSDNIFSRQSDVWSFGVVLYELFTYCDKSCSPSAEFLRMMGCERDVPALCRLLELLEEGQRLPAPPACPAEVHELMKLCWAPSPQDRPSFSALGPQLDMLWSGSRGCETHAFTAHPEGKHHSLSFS
Structures can show the parent of a compound that is named as a salt.

{"columns": ["MOLECULE", "IC50"],
 "data": [
  ["Cc1cc(C(=O)N2CCC(CC(=O)Nc3ccc4cc3CCc3cncc(c3)Nc3ncc(C)c(n3)N4)CC2)no1 [Example C51, bis(trifluoroacetate)]", "> 0.4 µM"],
  ["O=C1Nc2cccc(c2)Nc2nc(ncc2Cl)Nc2cccc1c2 [Example C2, hydrochloride]", "> 1 µM"],
  ["O=C(c1cccs1)N1Cc2cccc(c2)Nc2ncc(Cl)c(n2)Nc2cccc1c2", "> 10 µM"]
]}

###

biological target: human JAK2 (a.a. 828-1132) (Homo sapiens, UniProt O60674); construct: JAK2 (a.a. 828-1132); His tag (N); made in house; host or cells: insect cells (baculovirus); test: In vitro JAK kinase assay (HTRF, phosphorylation of a biotinylated peptide), JAK2; format: biochemical; settings: Table D1
Sequence (O60674 828-1132): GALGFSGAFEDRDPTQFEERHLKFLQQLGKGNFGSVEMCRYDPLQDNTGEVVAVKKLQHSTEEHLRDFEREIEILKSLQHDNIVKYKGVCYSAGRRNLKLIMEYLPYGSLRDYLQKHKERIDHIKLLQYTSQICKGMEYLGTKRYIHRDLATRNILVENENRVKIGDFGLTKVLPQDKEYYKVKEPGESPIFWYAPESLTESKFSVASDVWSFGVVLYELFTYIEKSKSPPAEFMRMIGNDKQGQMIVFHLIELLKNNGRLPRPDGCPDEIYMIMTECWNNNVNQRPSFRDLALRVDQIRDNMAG
Where a name gives a salt, the structure may show the parent alone.

{"columns": ["COMPOUND", "UNITS", "BOUND_OPERATOR", "IC50"],
 "data": [
  ["N#Cc1ccccc1NC(=O)N1CCC(CCOc2ccc3cc2CCc2cncc(c2)Nc2ncc(Cl)c(n2)N3)CC1 [Example D173, bis(trifluoroacetate)]", "nM", ">", 400],
  ["O=C(Cn1c(=O)oc2c3cc(cc21)Nc1nc(ncc1Cl)Nc1cccc(c1)CC3)Nc1ccccc1 [Example D185, trifluoroacetate]", "nM", "=", 49],
  ["N#Cc1ccc(N2CCN(C(=O)COc3ccc4cc3CCc3cncc(c3)Nc3ncc(Cl)c(n3)N4)CC2)nc1 [Example D239, tris(trifluoroacetate)]", "nM", "=", 208],
  ["Clc1cnc2nc1Nc1cccc(c1)CCCNc1cccc(c1)N2 [Example D77, bis(trifluoroacetate)]", "nM", "=", 3.1],
  ["O=C(C[C@H]1CCCN(c2nc3ccccc3s2)C1)Nc1ccc2cc1CCc1cncc(c1)Nc1ncc(Cl)c(n1)N2 [Example D212, tris(trifluoroacetate)]", "nM", ">", 1000],
  ["O=S1(=O)CCc2cccc(c2)Nc2ncc(Cl)c(n2)Nc2cccc1c2 [Example D24, trifluoroacetate]", "nM", "=", 6],
  ["O=C(C[C@@H]1CCCN(C(=O)Nc2ccccc2)C1)Nc1ccc2cc1CCc1cccc(c1)Nc1ncc(Cl)c(n1)N2 [Example D196, trifluoroacetate]", "nM", "=", 6.4],
  ["O=C(C[C@H]1CCCN(C(=O)Nc2ccccc2)C1)Nc1ccc2cc1CCc1cncc(c1)Nc1ncc(Cl)c(n1)N2 [Example D199, bis(trifluoroacetate)]", "nM", "=", 8],
  ["c1cc2cc(c1)Nc1ccnc(n1)Nc1cncc(c1)CC2 [Example D217, bis(trifluoroacetate)]", "nM", "=", 103],
  ["Cc1oncc1C(=O)N1CCC(CCOc2ccc3cc2CCc2cncc(c2)Nc2ncc(Cl)c(n2)N3)CC1 [Example D178, bis(trifluoroacetate)]", "nM", ">", 400]
]}
